Origin of measurements: patent US20100204156A1

test: Cell viability / cytotoxicity (MTS) in the HIV-1 assay; conditions: human, CEM-SS cells
Residues, ends and D or L forms follow the SMILES beside them.
property: viability at 10 micrograms per ml (%)
One number for each entry, in %.

Record CC(C)[C@H](NC(=O)[C@H](CC(=O)O)NC(=O)[C@H](CCCCN)NC(=O)[C@@H](N)CCCN=C(N)N)C(=O)N[C@@H](Cc1ccc(O)cc1)C(=O)O [Thymopentin, Arg-Lys-Asp-Val-Tyr-OH] (H-RKDVY-OH) , field viability at 10 micrograms per ml: 100

* * *

test: Cell viability (dye uptake) in the HBV assay; format: cell-based; details: human, HepG2-2.2.15 cells, test peptide 10 micrograms per ml
Residues, ends and D or L forms follow the SMILES beside them.
property: viability at 144 h, 10 micrograms per ml (%)
Give bare numbers, in %.

Record CC(C)[C@H](NC(=O)[C@H](CC(=O)O)NC(=O)[C@H](CCCCN)NC(=O)[C@@H](N)CCCN=C(N)N)C(=O)N[C@@H](Cc1ccc(O)cc1)C(=O)O [Thymopentin, Arg-Lys-Asp-Val-Tyr-OH] (H-RKDVY-OH) , field viability at 144 h, 10 micrograms per ml: 100

* * *

experiment: Cytotoxicity testing (CellTiter 96) in MRC-5 cells; assay type: cell-based; settings: human, MRC-5 cells (human embryonal lung fibroblasts), 6 days incubation, read-out: % Cell viability
Residues, ends and D or L forms follow the SMILES beside them.
property: viability at 144 h

Record CC(C)[C@H](NC(=O)[C@H](CC(=O)O)NC(=O)[C@H](CCCCN)NC(=O)[C@@H](N)CCCN=C(N)N)C(=O)N[C@@H](Cc1ccc(O)cc1)C(=O)O [Thymopentin, Arg-Lys-Asp-Val-Tyr-OH] (H-RKDVY-OH) , field viability at 144 h: 100%
